Tested on: Aβ42
Test: Amyloidβ peptide release (Aβ42) assay, AlphaLisa on supernatant of APPswe-HEK cells
Format: cell-based
Conditions: Homo sapiens, 24 hours incubation with compound, read-out: Ab42 IC50 Ranges
Description: Amyloidβ Peptide Release (Aβ42 & AβTotal) Assay to Determine IC50 Values. Amyloidβ peptide release (Aβ42 & AβTotal) assay are performed in 384 well microtiter plates (Perkin Elmer AlphaPlate #6008350) in a final volume of 20 μl, using supernatant coming from APPswe-HEK cells exposed to test compounds. […] AmyloidP peptide release (Aβ42 & AβTotal) is measured with a Pherastar FS (BMG) multimode reader using the alphascreen module.
pIC50: −log10 of the molar value.
REPORTED ENDPOINT: pIC50

Value of measured pIC50 for the entry COc1cc(NC(=O)c2nnn3c2CCC3c2ccc(Cl)c(Cl)c2)ccc1-n1cnc(C)c1 (centres unmarked) [Example 34] : ≥ 6.82

Value of measured pIC50 for the entry COc1nc(NC(=O)c2nnn3c2CCCC3c2ccc(Cl)cc2)ccc1-n1cnc(C)c1 (centres unmarked) [Example 15] : 6.00 to 6.30

Value of measured pIC50 for the entry COc1cc(NC(=O)c2nnn3c2CC[C@@H]3c2ccc(Cl)cc2)ccc1-n1cnc(C)c1 [Example 30] : ≥ 6.82

Value of measured pIC50 for the entry Cc1cn(-c2ccc(NC(=O)c3nnn4c3CCCC4c3ccc(Cl)cc3)cc2C#N)cn1 (centres unmarked) [Example 13] : 6.30 to 6.82

Value of measured pIC50 for the entry COc1cc(C(=O)Nc2nnn3c2CCCC3c2ccc(F)cc2Cl)ccc1-n1cnc(C)c1 (centres unmarked) [Example 39] : 6.30 to 6.82

Value of measured pIC50 for the entry Cc1cn(-c2ccc(NC(=O)c3nnn4c3CCCC4c3ccc(Cl)cc3)cc2F)cn1 (centres unmarked) [Example 14] : 6.30 to 6.82

Value of measured pIC50 for the entry COc1cc(NC(=O)c2nnn3c2CCCC3c2ccc(F)cc2)ccc1-n1cnc(C)c1 (centres unmarked) [Example 20] : 6.30 to 6.82

Value of measured pIC50 for the entry COc1cc(Nc2nnn3c2CCC3c2ccccc2Cl)ccc1-n1cnc(C)c1 (centres unmarked) [Example 11] : 6.30 to 6.82

Value of measured pIC50 for the entry COc1cc(C(=O)Nc2nnn3c2CCCC3c2ccc(Cl)cc2)ccc1-n1cnc(C)c1 (centres unmarked) [Example 40] : 6.30 to 6.82

Value of measured pIC50 for the entry COc1cc(C(=O)Nc2nnn3c2CCC3c2ccc(F)cc2)ccc1-c1ccnc(C)c1 (centres unmarked) [Example 47] : > 6.00

Value of measured pIC50 for the entry COc1cc(NC(=O)c2nnn3c2CCCC3c2ccc(F)cc2Cl)ccc1-n1cnc(C)c1 (centres unmarked) [Example 17] : 6.30 to 6.82

Value of measured pIC50 for the entry Cc1cn(-c2ccc(Nc3nnn4c3CCCC4c3ccc(F)cc3Cl)cc2F)cn1 (centres unmarked) [Example 3] : 6.30 to 6.82

Value of measured pIC50 for the entry COc1cc(C(=O)Nc2nnn3c2CCC3c2ccc(Cl)cc2)ccc1-n1cnc(C)c1 (centres unmarked) [Example 44] : 6.30 to 6.82

Value of measured pIC50 for the entry COc1nc(NC(=O)c2nnn3c2CCC3c2ccc(Cl)cc2)ccc1-n1cnc(C)c1 (centres unmarked) [Example 29] : > 6.00

Value of measured pIC50 for the entry COc1cc(NC(=O)c2nnn3c2CC[C@H]3c2ccc(Cl)cc2)ccc1-n1cnc(C)c1 [Example 31] : 6.30 to 6.82

Value of measured pIC50 for the entry COc1cc(C(=O)Nc2nnn3c2CCCC3c2ccc(F)cc2)ccc1-n1cnc(C)c1 (centres unmarked) [Example 43] : > 6.00

Value of measured pIC50 for the entry COc1cc(NC(=O)c2nnn3c2CCC3c2ccccc2Cl)ccc1-n1cnc(C)c1 (centres unmarked) [Example 32] : ≥ 6.82

Hello, the source for this data is patent US9527853B2, in case you need it.
